- assay_info: NOD1 signaling inhibitors, primary screen, cell-based, luminescence, uHTS (AID 1578);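 note: HEK-293T reporter cells stimulated with the NOD1 agonist gamma-tri-DAP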
- study_conditions: NOD1-driven NF-kB luciferase reporter cells, at 4 µM, active compounds read high
The campaign covered roughly 290,000 compounds. About 3,000 (1%) were called active. The sample holds actives, similar compounds and a random draw of the others, so the mix is not that of the screen.
# inhibition annotations
Number in %, nothing else.

Short answer for Cc1[nH]c(=S)c(C#N)c(-c2ccco2)c1C(=O)N(C)C : inhibition was -29.8

Short answer for O=C(NC(=S)Nc1cccc2cccnc12)c1ccccc1 : inhibition was -2.9

Next compound, inhibition to be filled in.
Short answer for CCOC(=O)c1ccccc1NC(=O)CSc1ccc(-c2ccccn2)nn1 : inhibition was -59.6
